A2A AR (Homo sapiens) Ki data
Sequence (P29274 whole entry): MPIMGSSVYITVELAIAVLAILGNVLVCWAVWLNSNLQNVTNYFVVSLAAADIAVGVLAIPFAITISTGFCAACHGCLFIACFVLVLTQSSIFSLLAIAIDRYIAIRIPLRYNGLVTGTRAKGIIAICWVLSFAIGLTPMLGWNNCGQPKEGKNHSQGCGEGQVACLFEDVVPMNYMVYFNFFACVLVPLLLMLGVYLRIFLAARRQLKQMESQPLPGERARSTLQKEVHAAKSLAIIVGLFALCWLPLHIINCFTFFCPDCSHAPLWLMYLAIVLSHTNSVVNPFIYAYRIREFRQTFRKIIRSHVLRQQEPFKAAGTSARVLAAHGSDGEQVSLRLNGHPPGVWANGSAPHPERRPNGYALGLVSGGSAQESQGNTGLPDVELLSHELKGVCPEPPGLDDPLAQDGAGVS
ENDPOINT: Ki (nM)

                                   molecule         assayed_target  experimental_value
0  NCCNC(=O)Cc1ccc(NC(=O)Cc2ccc(Nc3ncnc4c3ncn4[C@@H]3O[C@H](CO)[C@@H](O)[C@H]3O)cc2)cc1 [Compound 1, reference compound]  A2A AR (Homo sapiens)                 370
1  NCCNCCNC(=O)Cc1ccc(NC(=O)Cc2ccc(Nc3ncnc4c3ncn4[C@@H]3O[C@H](CO)[C@@H](O)[C@H]3O)cc2)cc1  A2A AR (Homo sapiens)                 300
